target: Peroxisome proliferator-activated receptor gamma (Homo sapiens, UniProt P37231); assay: Agonist activity at human recombinant PPARgamma expressed in CHO cells cotransfected with pGL3-PPRE3-TK-luc reporter assessed as beta-galactosidase activity at after 24 hrs by luciferase based transactivation assay
Sequence (P37231 whole entry): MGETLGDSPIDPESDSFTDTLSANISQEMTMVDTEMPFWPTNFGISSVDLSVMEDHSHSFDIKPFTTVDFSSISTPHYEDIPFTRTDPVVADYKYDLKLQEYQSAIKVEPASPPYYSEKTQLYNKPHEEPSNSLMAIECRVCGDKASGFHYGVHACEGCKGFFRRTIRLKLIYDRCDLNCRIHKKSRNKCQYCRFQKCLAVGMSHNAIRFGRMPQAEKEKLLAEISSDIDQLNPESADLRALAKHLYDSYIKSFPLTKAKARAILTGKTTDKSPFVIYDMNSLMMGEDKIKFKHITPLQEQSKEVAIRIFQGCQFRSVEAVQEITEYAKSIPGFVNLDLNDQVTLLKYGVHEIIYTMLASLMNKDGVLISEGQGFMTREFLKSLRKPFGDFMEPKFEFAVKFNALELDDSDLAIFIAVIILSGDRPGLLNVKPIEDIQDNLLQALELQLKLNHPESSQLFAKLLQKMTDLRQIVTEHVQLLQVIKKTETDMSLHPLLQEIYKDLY
MEASUREMENT NAME: EC50 (µM)

(P) CCCCCCCCC[C@H]1CC[C@H](O)/C=C/[C@H](O)CC(=O)O1 [SEIMATOPOLIDE B]
(Q) CCCCCCCCC[C@H]1C[C@@H](O)[C@H](O)/C=C/[C@H](O)CC(=O)O1 [SEIMATOPOLIDE A]
Which numeric EC50 is bigger, that of P or that of Q ? Field: selected label. Fill in the label of the entry you choose.
P
(P: 11.1 µM, Q: 1.15 µM)
